tested_target: Bromodomain adjacent to zinc finger domain protein 2B (Homo sapiens)
protocol_notes: qHTS Assay for Inhibitors of BAZ2B; note: nearly all actives have a fitted effect of over 60% in size
condition_summary: AlphaScreen BAZ2B-H3K14Ac peptide displacement; series mostly up to 114 µM
Hit rate of the full screen: of about 360,000 compounds, about 16,000 (4.4%) were called active. Not shown: some 9% with an inconclusive outcome. Calls come from the whole dose curve; as a rule, active = well fitted inhibition curve with a large enough effect; inconclusive = small, poorly fitted or top-dose-only effect; inactive = no such curve, though single readings can be large or run the other way. The list comes from a sample in which actives are over-represented; it also holds close analogues and randomly drawn compounds.
Pick one: active, inactive

Please review the entries below; each comes with its answer.
COc1ccc(N2C(=O)/C(=C/c3ccco3)C(=O)NC2=S)cc1	active
CCCCn1c(O)c(C(CC)=NCc2ccco2)c(=O)[nH]c1=O	inactive
COC(=O)C1=C(c2ccc(F)cc2OCc2ccccc2)C[C@@H]2CC[C@H]1N2C(=O)NCc1ccc(C(C)(C)C)cc1	inactive
CC(C)c1c(CN(C)C(C)Cc2ccccc2)n(C)n(-c2ccccc2)c1=O (stereo not given)	inactive
CN(C)S(=O)(=O)c1cc(C(=O)N2CCC(C(=O)O)(c3ccccc3)CC2)ccc1Cl	inactive
C=CCn1c(O)c(/C=N/N2CCOCC2)c(=O)[nH]c1=S	inactive
O=C(O)c1ccccc1NC(=O)C1C2CCC(O2)C1C(=O)O (stereo not given)	inactive
COc1cccc(N2C(=O)NC(=O)/C(=C\c3ccc([N+](=O)[O-])s3)C2=O)c1	active

State the result this test recorded for `COC(=O)C1=C(c2cccc(OCc3ccccc3)c2)C[C@@H]2CC[C@H]1N2C(=O)NCc1ccc(Br)cc1` .
inactive

State the result this test recorded for Cc1cc(N2C(=O)C3CCCN3C2c2ccc(Cl)c(Cl)c2)no1 (stereo not given) .
inactive

State the result this test recorded for `COc1ccccc1NC(=O)N1C[C@@H]2C[C@@H](C1)c1cccc(=O)n1C2` .
inactive

State the result this test recorded for `CC[N+](C)(CC)CCC[n+]1c(-c2ccccc2)c2cc(N)ccc2c2ccc(N)cc21` .
active

State the result this test recorded for `CCOc1ccc(-c2cc(C)[n+](CCN(CC)CC)c(-c3ccc(OCC)cc3)c2)cc1` .
inactive

State the result this test recorded for `O=C(COc1ccc2ccccc2c1)N1CCN(Cc2ccncc2)CC1` .
inactive

State the result this test recorded for `COc1ccccc1CN1CCN(C(=O)Cc2ccccc2)CC1` .
active

State the result this test recorded for `CC/C(=N\NC(=O)c1ccccc1O)c1c(O)n(Cc2ccccc2)c(=O)[nH]c1=O` .
inactive

State the result this test recorded for `Cc1ccc(S(=O)(=O)N(C)c2ccc(C(=O)NCC3(N(C)C)CCCCC3)cc2)cc1` .
inactive

State the result this test recorded for `O=C(O)CCn1cc(C=C2C(=O)NC(=S)NC2=O)c(-c2cccc(Br)c2)n1` .
active

State the result this test recorded for CN(C)c1ccc(NC(=O)CN2C3CCCC2CC(NC(=O)c2ccccc2)C3)cc1 (stereo not given) .
active

State the result this test recorded for `O=C1NC(=O)N(c2ccccc2)C(=O)/C1=C/c1ccc([N+](=O)[O-])s1` .
active

State the result this test recorded for `COC(=O)C1=C(c2ccc(F)cc2F)C[C@@H]2CC[C@H]1N2C(=O)NC1CC1` .
inactive

* * *

tested_target: Bromodomain adjacent to zinc finger domain protein 2B (Homo sapiens) (UniProt Q9UIF8)
Sequence (Q9UIF8 whole entry, looked up, the tested form may be a part): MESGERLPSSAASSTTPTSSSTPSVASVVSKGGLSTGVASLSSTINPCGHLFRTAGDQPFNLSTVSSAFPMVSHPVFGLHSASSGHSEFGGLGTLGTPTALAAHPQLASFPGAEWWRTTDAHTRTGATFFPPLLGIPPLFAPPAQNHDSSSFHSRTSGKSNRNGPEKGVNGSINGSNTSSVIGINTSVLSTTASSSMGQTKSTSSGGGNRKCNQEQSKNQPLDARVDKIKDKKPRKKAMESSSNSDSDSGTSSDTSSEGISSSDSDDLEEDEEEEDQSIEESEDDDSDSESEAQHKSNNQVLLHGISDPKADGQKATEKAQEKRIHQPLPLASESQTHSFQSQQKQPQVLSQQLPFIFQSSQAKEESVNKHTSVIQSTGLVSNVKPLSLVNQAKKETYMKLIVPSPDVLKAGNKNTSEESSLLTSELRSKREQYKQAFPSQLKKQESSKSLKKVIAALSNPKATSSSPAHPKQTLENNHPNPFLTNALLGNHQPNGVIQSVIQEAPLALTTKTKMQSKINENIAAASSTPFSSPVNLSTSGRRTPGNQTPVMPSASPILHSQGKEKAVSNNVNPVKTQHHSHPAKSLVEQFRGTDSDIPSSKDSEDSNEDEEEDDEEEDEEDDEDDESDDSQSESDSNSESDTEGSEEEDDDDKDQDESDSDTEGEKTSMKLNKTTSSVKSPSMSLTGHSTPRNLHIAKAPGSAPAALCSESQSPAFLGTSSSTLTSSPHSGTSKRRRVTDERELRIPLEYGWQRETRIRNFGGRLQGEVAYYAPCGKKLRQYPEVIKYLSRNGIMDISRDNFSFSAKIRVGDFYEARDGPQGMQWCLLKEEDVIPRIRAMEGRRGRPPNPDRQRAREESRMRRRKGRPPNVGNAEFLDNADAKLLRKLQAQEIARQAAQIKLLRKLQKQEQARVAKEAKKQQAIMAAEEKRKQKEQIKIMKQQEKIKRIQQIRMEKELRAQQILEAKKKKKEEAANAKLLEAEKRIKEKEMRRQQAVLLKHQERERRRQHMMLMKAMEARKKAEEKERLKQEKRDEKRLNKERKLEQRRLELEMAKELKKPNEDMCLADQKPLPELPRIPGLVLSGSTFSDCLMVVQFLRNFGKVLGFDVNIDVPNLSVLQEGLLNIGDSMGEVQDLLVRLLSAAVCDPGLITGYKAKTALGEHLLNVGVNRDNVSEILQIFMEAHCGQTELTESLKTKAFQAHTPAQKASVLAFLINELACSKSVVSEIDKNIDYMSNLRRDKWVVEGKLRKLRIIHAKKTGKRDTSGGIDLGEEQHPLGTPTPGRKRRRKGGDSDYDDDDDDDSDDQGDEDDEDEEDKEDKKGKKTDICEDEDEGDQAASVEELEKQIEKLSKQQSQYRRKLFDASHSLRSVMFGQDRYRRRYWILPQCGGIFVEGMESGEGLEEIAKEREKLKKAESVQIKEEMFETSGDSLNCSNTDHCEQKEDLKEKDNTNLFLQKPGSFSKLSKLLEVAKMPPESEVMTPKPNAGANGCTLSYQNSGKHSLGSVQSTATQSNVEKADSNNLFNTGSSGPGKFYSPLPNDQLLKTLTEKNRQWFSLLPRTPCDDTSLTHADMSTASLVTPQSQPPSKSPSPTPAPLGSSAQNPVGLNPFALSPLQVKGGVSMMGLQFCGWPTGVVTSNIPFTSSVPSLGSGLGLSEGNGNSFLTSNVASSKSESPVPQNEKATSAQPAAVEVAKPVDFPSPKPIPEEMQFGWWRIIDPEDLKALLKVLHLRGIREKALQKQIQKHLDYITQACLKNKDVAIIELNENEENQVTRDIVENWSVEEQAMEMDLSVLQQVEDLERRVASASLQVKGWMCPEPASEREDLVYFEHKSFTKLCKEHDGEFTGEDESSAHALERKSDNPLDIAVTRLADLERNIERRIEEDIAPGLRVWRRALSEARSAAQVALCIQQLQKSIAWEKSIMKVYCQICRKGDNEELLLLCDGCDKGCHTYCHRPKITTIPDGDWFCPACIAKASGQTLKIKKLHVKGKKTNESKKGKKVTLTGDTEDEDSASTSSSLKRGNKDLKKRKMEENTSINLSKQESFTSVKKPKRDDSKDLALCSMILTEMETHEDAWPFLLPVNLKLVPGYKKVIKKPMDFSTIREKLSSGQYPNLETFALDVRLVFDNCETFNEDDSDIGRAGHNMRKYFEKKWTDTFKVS
protocol_notes: qHTS Assay for Inhibitors of BAZ2B; note: nearly all actives have a fitted effect of over 60% in size
condition_summary: AlphaScreen BAZ2B-H3K14Ac peptide displacement; series mostly up to 114 µM
The campaign covered roughly 360,000 compounds. About 16,000 (4.4%) were called active. Inconclusive results (about 9%) are left out. Calls come from the whole dose curve; as a rule, active = well fitted inhibition curve with a large enough effect; inconclusive = small, poorly fitted or top-dose-only effect; inactive = no such curve, though single readings can be large or run the other way. The sample holds actives, similar compounds and a random draw of the others, so the mix is not that of the screen.
Pick one: 1.0 = active, 0.0 = inactive

Please review the entries below; each comes with its answer.
O=C1NC(=O)N(Cc2ccco2)C(=O)/C1=C\c1cccn1CCOc1ccccc1	1.0
c1cc2c(cc1CCNC1CCCCCC1)OCO2	1.0
COc1ccc(CN2CCN(c3ccccc3F)CC2)c(OC)c1	1.0
OC(CNC1CCCCC1)c1ccccc1 (stereo unspecified)	0.0
O=C(NC(=S)N1C[C@H]2C[C@H](C1)c1cccc(=O)n1C2)c1ccc(F)cc1	0.0
c1ccc(CC2CCCCN2)cc1 (stereo unspecified)	0.0

State the result this test recorded for `CCCCCn1c(=O)c(C(=O)NCc2ccccc2)c(O)c2ccccc21` .
0.0

State the result this test recorded for `O=C(CCC(=O)N1C[C@H]2C[C@@H](C1)c1cccc(=O)n1C2)NCc1ccccc1C(F)(F)F` .
0.0

State the result this test recorded for `O=C1NC(=O)N(CCc2ccc(F)cc2)C(=O)/C1=C/C=C/c1ccccc1` .
0.0

State the result this test recorded for Cc1ccc(CN2CCCC(C(=O)c3ccc4c(c3)OCO4)C2)cc1C (stereo unspecified) .
0.0

State the result this test recorded for `COc1ccc(N=Cc2c(O)n(C)c(=O)[nH]c2=O)cc1` .
0.0

* * *

tested_target: Bromodomain adjacent to zinc finger domain protein 2B (Homo sapiens) (UniProt Q9UIF8)
protocol_notes: qHTS Assay for Inhibitors of BAZ2B; note: nearly all actives have a fitted effect of over 60% in size
condition_summary: AlphaScreen BAZ2B-H3K14Ac peptide displacement; series mostly up to 114 µM
From the text: BAZ2B (bromodomain adjacent to zinc finger domain, 2B) belongs to a family of ubiquitously expressed bromodomain containing proteins, which biological function has not yet been elucidated. […] Yasgar, et al. Compound Management for Quantitative High-Throughput Screening. […] Inglese, et al. Quantitative high-throughput screening: a titration-based approach that efficiently identifies biological activities in large chemical libraries. […]
Out of some 360,000 compounds screened, about 16,000 (4.4%) were called active. About 9% were inconclusive and are not listed. Calls follow the shape of the dose curve; as a rule, active = well fitted inhibition curve with a large enough effect; inconclusive = small, poorly fitted or top-dose-only effect; inactive = no such curve, though single readings can be large or run the other way. The full list was thinned out, with actives kept by preference.
Pick one: yes (1) for active, no (0) for inactive

Please review the entries below; each comes with its answer.
COC(=O)C1=C(c2c(C)noc2C)C[C@@H]2CC[C@H]1N2C(=O)NCc1ccc2c(c1)OCO2	no (0)
COC(=O)C1=C(c2ccc(Cl)c(C(F)(F)F)c2)C[C@@H]2CC[C@H]1N2C(=O)NC(C)C	no (0)
Cc1ccccc1NC(=O)COC(=O)c1cc(C)n(C2CC2)c1C	no (0)
CCN(CC)C(=O)c1ccc(NC(=O)c2sccc2-c2ccccc2)cc1	no (0)
CCC1(C)CC(CCNCc2ccc(N(C)C)cc2)(c2ccc(F)cc2)CCO1 (stereo unspecified)	yes (1)
Cc1ccccc1N1C(=O)NC(=O)/C(=C\c2cc(C)n(C)c2C)C1=O	no (0)

State the result this test recorded for CCOC(=O)C1(Cc2ccc(Cl)cc2)CCN(C(C)CCn2cccn2)CC1 (stereo unspecified) .
no (0)

State the result this test recorded for `COc1ccc(CNCCc2ccc3c(c2)OCO3)c(OC)c1OC` .
yes (1)

State the result this test recorded for `CCCCC(=O)N/N=C/c1c(O)n(CCC2=CCCCC2)c(=O)[nH]c1=O` .
yes (1)

State the result this test recorded for `O=c1[nH]c(=O)n(Cc2ccccc2)c(O)c1/C=N/Nc1c(F)c(F)c(F)c(F)c1F` .
no (0)

State the result this test recorded for `CN(C)C(=O)Oc1ccc2c(c1)O/C(=C\c1ccccc1)C2=O` .
no (0)

State the result this test recorded for `Cc1c(C(=O)O)cccc1-n1c(C)cc(/C=C2\C(=O)NC(=O)N(c3ccc4c(c3)OCO4)C2=O)c1C` .
yes (1)

State the result this test recorded for `CCCCC(=O)N/N=C/c1c(O)n(CC)c(=S)n(CC)c1=O` .
no (0)

* * *

tested_target: Bromodomain adjacent to zinc finger domain protein 2B (Homo sapiens) (UniProt Q9UIF8)
protocol_notes: qHTS Assay for Inhibitors of BAZ2B; note: nearly all actives have a fitted effect of over 60% in size; note: potency is the fitted concentration of half-maximal effect
condition_summary: AlphaScreen BAZ2B-H3K14Ac peptide displacement; series mostly up to 114 µM
The campaign covered roughly 360,000 compounds. About 16,000 (4.4%) were called active. Another 9% or so got no clear call; they are omitted. Shown is part of a subset that was picked to be rich in actives.
measure: Potency

C=CCN1C(=O)NC(=O)/C(=C/c2ccc(OCC(=O)Nc3ccc(C)cc3)cc2)C1=O	50.1 µM (active)
COC(=O)C1=C(c2ccc(-c3ccccc3)c(F)c2)C[C@@H]2CC[C@H]1N2C(=O)NCc1ccc(F)cc1	inactive
Cc1ccc(-n2c(C)cc(/C=C3\C(=O)NC(=O)N(C)C3=O)c2C)cc1C	inactive
COC(=O)C1=C(c2ccc(F)cc2OCc2ccccc2)C[C@@H]2CC[C@H]1N2C(=O)NCc1ccc(Cl)cc1	inactive
COCCNC(=O)CN1C2CCC1CC(O)(c1cccnc1)C2 (centres undefined)	inactive
Cc1cc(C=C2C(=O)NC(=O)NC2=O)c(C)n1-c1ccncc1	inactive
Cc1cccc(Cn2cccc(C(=O)Nc3ccc4c(c3)OCCO4)c2=O)c1	inactive
O=c1[nH]c(O)c(C=Nc2cc(F)cc(F)c2)c(=O)[nH]1	inactive

Read the next record carefully.
// lookup Potency | system=Bromodomain adjacent to zinc finger domain protein 2B (Homo sapiens) (UniProt Q9UIF8) | key= `Cc1cc(/C=C2/C(=O)NC(=O)N(Cc3ccco3)C2=O)c(C)n1-c1ccc(C(=O)O)cc1`
56.2 µM (active)

The reported numbers originate from PubChem BioAssay AID504333.
